Target: human CLDN18.2-mRFP L69I (human)
Sequence (chain, as listed by the source L69I L69I limits assumed): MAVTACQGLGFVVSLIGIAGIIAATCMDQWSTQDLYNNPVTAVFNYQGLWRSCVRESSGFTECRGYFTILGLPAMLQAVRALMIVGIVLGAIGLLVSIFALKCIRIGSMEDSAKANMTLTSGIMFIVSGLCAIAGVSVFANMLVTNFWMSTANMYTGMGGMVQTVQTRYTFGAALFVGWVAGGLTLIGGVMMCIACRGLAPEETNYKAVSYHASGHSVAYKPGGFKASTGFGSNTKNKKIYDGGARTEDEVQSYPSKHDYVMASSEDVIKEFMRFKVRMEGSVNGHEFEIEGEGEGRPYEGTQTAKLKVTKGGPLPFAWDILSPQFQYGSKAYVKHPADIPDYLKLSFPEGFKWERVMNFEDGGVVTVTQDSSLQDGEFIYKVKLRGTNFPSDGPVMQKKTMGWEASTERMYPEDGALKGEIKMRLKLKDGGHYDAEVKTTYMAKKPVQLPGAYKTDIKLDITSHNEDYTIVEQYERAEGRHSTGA
Test: FACS, transfected HEK293, 10 µg/ml antibody;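 note: antibody binding read by flow cytometry with a FITC-labelled anti-human IgG secondary, gated on RFP-positive cells, each mutant signal expressed against wild-type CLDN18.2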
Values of binding percentage vs wild-type CLDN18.2 greater than or equal to 80% map to condition met; values below map to condition not met.

Before answering, review these 3 worked examples.
binder	label-class
12E9-C (antibody, human IgG1, V domains shown, also called chimeric 12E9) VH: EFQLQQSGPELEKPGASVRISCKTSGYSFTGYNMNWVKQSNGESLEWIGNIDPYYGGTRYNQKFKGKATLTVDKSSSTAYMQLKSLTSEDSAVYYCARSYYGNAFDYWGQGTTLTVSS VL: DIVMTQSPSSLTVTAGEKVTMSCKSSQNLLNNGNQKNYLTWYQQKPGQPPKLLIYWASTRESGVPDRFTGSGSGTDFILTISSVQAEDLAVYYCQNDYSFPFTFGAGTKLELK	condition not met
59A9-C (antibody, human IgG1, V domains shown, also called chimeric 59A9) VH: QITQKESGPGILQPSQTLSLTCSLSGFSLSTYFIGVGWIRQPSGKGLEWLAHIWWNDNKYYNTALKSRLTISKDTSNNQVFLKIASVDTADTATYYCARMGSGAWFTYWGQGTLVTVSA VL: DIVMTQSPSSLTVTAGEKVTMSCKSSQSLLNSGNQKNYLTWYQQKPGQPPKLLIYWASTRESGVPDRFTGSGSGTDFTLTISSVQAEDLAVYYCQNDYYYPLTFGSGTKLEIK	condition met
7C12-C (antibody, human IgG1, V domains shown, also called chimeric 7C12) VH: EFQLQQSGPELEKPGASVRISCKTSGYSFTGYNMNWVKQSNGESLEWIGNIDPYYGATRYNQKFKGKATLTVDKSSSTAYMQLKSLTSEDSAVYYCARSYYGNAFDYWGQGTTLTVSS VL: DIVMTQSPSSLTVTAGEKVTMSCKSSQSLLNSGNQKNYLTWYQQKPGQPPKLLIYWASTRESGVPDRFTGSGSGTDFTLTISSVQAEDLAVYYCQNDYSFPFTFGSGTKLEIK	condition met

Q: Tell me whether binding percentage vs wild-type CLDN18.2 is at least 80% here: 11F12-C (antibody, human IgG1, V domains shown, also called chimeric 11F12) VH: EFQLQQSGPELEKPGASVRISCKTSGYSFTGYNMNWVKQSNGESLEWIGYIDPYYGGTRYNQKFKGKATLTVDKSSSTAYMQLKSLTSEDSAVYYCARSYYGNAFDYWGQGTTLTVSS VL: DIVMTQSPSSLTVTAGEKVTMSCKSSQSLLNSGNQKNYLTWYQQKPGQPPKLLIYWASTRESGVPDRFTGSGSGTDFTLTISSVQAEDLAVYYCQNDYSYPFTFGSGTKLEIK
Result: condition not met

Q: Tell me whether binding percentage vs wild-type CLDN18.2 is at least 80% here: 18B10-C (antibody, human IgG1, V domains shown, also called chimeric 18B10) VH: EFQLQQSGPELEKPGASVRISCKTSGYSFTGYNMNWVKQSNGESLEWIGNIDPYYGGTSYNQKFKGKATLTVDKSSSTAYMQLKSLTSEDSAVYYCARMYHGNAFDYWGQGTTLTVSS VL: DIVMTQSPSSLTVTAGEKVTMSCKSSQSLLNSGNLKNYLTWYQQKPGQPPKLLIYWASTRKSGVPDRFTGSGSGTDFTLTLSSVQAEDLAVYYCQNDYSYPLTFGAGTKLELK
Result: condition met
